- assayProtocol: protease stability score; higher = more stable; yeast display proteolysis, trypsin and chymotrypsin;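 note: relative to predicted unfolded state with 0 unfolded-like and 1 meaning tenfold more protease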
experimentalEndpoint: protease stability score

{"columns": ["constructSequence", "reportedValue"],
 "data": [
  ["DEDTKIIKEMLDEMVHATLTGNEDLLRELVDPEVRIRVGDKEKHGWEFLFHMLKHLRIDRSEITIHSIRVVNGRVEVDGELRIIFTIGDKHIEFSTRVHIILEKVDGRWRVQALLFH", 0.688],
  ["SEEEEEAERAIKLWIHNVLTGDEDSLTKLLDPHVKIIDYVNGVEINNHGREWVKHWLEHLRYDIIRIHEFRSQGDKVHVDGKSEGNYNGKHVETRVMFHLHVYNGVIKSVHIIHI", 1.63],
  ["SEIERDVHELIKEVSELTHTGNEEHSKMLLDPNYRVEIGDKTIHGRHLVSHWIKQMRSDITVEIREVRLIDGRLLADIRFVVRIRFDGVELHIEERRVLFWLKVDGQWIIESQRVH", 0.827],
  ["SEEEEEIKTWTDLFINLWMTGDFHTLVHLLDPNVKAEIDGVDVHGRESVEKMLRIFIKRLGADHSDVRDSSIVNGRLDIELESDVNGRIRTIDIHVLIINGRVKSLKVDIR", 2.46],
  ["DEEEDTARFLMELILHDLETGDEERLFRLMDPHTRLDIDGQQYHGRELVLQLHETLLERWGVERVEAFLRRTEIQGEKVLSDVHRHFNGVTVKTHIVLEKFNGRWSTKTLEYK", 0.6],
  ["SEEEELWKMVDHLVHEWLRTGDEDTFSHYADPHARSIVNGKELHGREEFSNLVHKLKEQYPNLTLTIDELRSVGDKITLHITEEFNGVRYDVRIYALKVNGKWLHRYVEVR", 1.54],
  ["SEEEEKARRLSELITRSFLTGDEEELEELLDPNARNIYNGVIVHGREEVSRLFHEEWLRYGIDHVRLEDMHIDVQGDKVDFHIIMRSEFNGRVHHVRVEVHIEKVDGRWVMKRLELRFS", 0.977],
  ["SEDEHHSREFLRVTEEILQTGDEEKREKNADPHMRFVLVYNGRETIIHGRETVVHFIHEELQRLGWDRFRVETERMSVYNGVVHIDIRIFVGDKTIHWHEHAKKVNGRWVYKSVEIRRE", 1.03],
  ["TEEQEESTRAYEEILQYIRTGDERQMTKYADPHVKLIFNGKEIHGREMFVELVKQYGIDHHHIHNWDFINGRVRMETHVRQGDKHDNAHIDMTKFDGKWIVRLFVFV", 0.856],
  ["DEQERAQEALRRFLRVFQEGDPDRARQQADKDVQMVVGDKEYEGREQVSRAIESLRERVDEFHITVRRITVSGNRVVVDAKLKLNINGKEDDVTLKLVIDVSGDKISIKRVEVR", 1.16],
  ["HEDDHQAERITHITMHAILTGDWRRMEELLDPHYRIEFENHENIGRERVNKVLIDLGIRNEIEIKRIRFQGDFVEIDGKLKIDVGDKHIEIKVRLFYVKINGRWFHHHVDLR", 0.835]
]}
